Target: Serine/threonine-protein kinase VRK3 (Homo sapiens) (UniProt Q8IV63)
Sequence (whole entry): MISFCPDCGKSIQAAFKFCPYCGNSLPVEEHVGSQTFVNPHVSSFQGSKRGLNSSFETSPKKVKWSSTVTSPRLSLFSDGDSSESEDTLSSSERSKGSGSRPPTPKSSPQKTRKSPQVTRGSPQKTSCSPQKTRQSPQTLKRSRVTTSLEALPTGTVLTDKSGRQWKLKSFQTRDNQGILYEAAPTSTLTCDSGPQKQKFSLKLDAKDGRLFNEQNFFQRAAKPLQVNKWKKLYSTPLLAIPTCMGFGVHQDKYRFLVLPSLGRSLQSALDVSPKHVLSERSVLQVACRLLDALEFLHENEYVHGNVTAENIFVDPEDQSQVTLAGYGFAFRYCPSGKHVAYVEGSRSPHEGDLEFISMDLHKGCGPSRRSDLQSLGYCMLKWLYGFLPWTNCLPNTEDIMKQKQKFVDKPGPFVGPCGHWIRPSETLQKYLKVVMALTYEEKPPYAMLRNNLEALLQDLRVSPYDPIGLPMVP
MEASUREMENT_KIND: ΔTm (°C)
Answers are plain numbers, in °C.

Use these answered entries as a reference point.
COMPOUND	SYSTEM	UNITS	ΔTm
O=C1Nc2cc(Br)ccc2/C1=C1/Nc2ccccc2/C1=N\O	Serine/threonine-protein kinase VRK3 (Homo sapiens) (UniProt Q8IV63)	°C	1.3
O=c1c2ccccc2[nH]c(=S)n1CCN1CCC(=C(c2ccc(F)cc2)c2ccc(F)cc2)CC1 [DIACYLGLYCEROL KINASE INHIBITOR II]	Serine/threonine-protein kinase VRK3 (Homo sapiens) (UniProt Q8IV63)	°C	-0.6
CN[C@@H]1CC2O[C@@](C)([C@@H]1OC)n1c3ccccc3c3c4c(c5c6ccccc6n2c5c31)C(=O)NC4	Serine/threonine-protein kinase VRK3 (Homo sapiens) (UniProt Q8IV63)	°C	0.3

Could you report ΔTm for every entry in the following list?
1. C#Cc1cccc(Nc2ncnc3cc(OCCOC)c(OCCOC)cc23)c1
2. COc1ccc(S(=O)(=O)N(CCO)c2ccccc2CN(C)C/C=C/c2ccc(Cl)cc2)cc1
3. C[S+]([O-])c1ccc(-c2nc(-c3ccc(F)cc3)c(-c3ccncc3)[nH]2)cc1 (centres undefined) [SB-203580]
4. O=C1Nc2ccccc2/C1=C1/Nc2ccccc2/C1=N\O
5. O=[N+]([O-])c1ccc(-c2nc(-c3ccc(F)cc3)c(-c3ccncc3)[nH]2)cc1
6. COc1ccc2c(c1)/C(=C/c1cnc[nH]1)C(=O)N2 [SU-9516]

1: 0.2; 2: -0.6; 3: 0; 4: 2.3; 5: 0.4; 6: 0.3

* * *

Assign ΔTm to each entry below.
Biological target: Cyclin-dependent kinase 6 (Homo sapiens) (UniProt Q00534)
Sequence (Q00534 whole entry): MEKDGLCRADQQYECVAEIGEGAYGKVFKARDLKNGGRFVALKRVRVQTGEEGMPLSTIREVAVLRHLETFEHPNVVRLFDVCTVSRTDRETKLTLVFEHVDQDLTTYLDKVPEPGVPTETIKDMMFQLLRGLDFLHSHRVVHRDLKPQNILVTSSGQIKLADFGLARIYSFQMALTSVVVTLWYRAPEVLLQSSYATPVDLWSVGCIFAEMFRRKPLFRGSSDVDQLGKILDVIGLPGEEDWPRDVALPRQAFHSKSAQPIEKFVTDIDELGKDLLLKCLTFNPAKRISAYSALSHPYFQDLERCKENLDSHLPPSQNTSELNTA
Answers are plain numbers, in °C.

Use these answered entries as a reference point.
MOLECULE	SYSTEM	MEASUREMENT_KIND	DATA_VALUE
CCN(CC)CCNC(=O)c1c(C)[nH]c(/C=C2\C(=O)Nc3ccc(Cl)cc32)c1C [SU-11652]	Cyclin-dependent kinase 6 (Homo sapiens) (UniProt Q00534)	ΔTm	2
COc1cc(O)c2c(c1)oc(=O)c1c3cc(O)c(O)cc3oc21 [WEDELOLACTONE]	Cyclin-dependent kinase 6 (Homo sapiens) (UniProt Q00534)	ΔTm	0.6
O=C1NC(=O)c2c1c1c3ccccc3[nH]c1n1cncc21 [ISOGRANULATIMIDE]	Cyclin-dependent kinase 6 (Homo sapiens) (UniProt Q00534)	ΔTm	2.7
CC(C)(C)n1nc(-c2cccc3ccccc23)c2c(N)ncnc21	Cyclin-dependent kinase 6 (Homo sapiens) (UniProt Q00534)	ΔTm	-0.3
COc1ccc(Cl)cc1NC(=O)Nc1cc(C)nc2ccccc12	Cyclin-dependent kinase 6 (Homo sapiens) (UniProt Q00534)	ΔTm	0.4

Could you report ΔTm for every entry in the following list?
1. NC(=O)c1ccc(-c2nc(-c3ccc4c(c3)OCCO4)c(-c3ccccn3)[nH]2)cc1
2. COc1cc2ncnc(Nc3cccc(Br)c3)c2cc1OC

1: 0.4; 2: 0.2
